Known Activity of a selection of compounds
System: A-375
Assay: Induction of apoptosis in human A375 cells assessed as late apoptotic cells at 10 uM after 48 hrs by annexin-v and PI staining based flow cytometry analysis (reference value: 1.83 +/- 0.41%)
Format: functional
PROPERTY_NAME: Activity (%)

1. CC1(C)S[C@@H]2/C(=C\C(=O)OC(c3ccccc3)c3ccccc3)C(=O)N2[C@H]1C(=O)OC(c1ccccc1)c1ccccc1; 7.75
2. CCOC(=O)/C=C1/C(=O)N2[C@@H]1SC(C)(C)[C@@H]2C(=O)OC(c1ccccc1)c1ccccc1; 11.5
3. CC1(C)S[C@@H]2/C(=C\C(=O)OCc3ccccc3)C(=O)N2[C@H]1C(=O)OC(c1ccccc1)c1ccccc1; 13
4. CC1(C)[C@H](C(=O)OC(c2ccccc2)c2ccccc2)N2C(=O)/C(=C/C(=O)c3ccccc3)[C@H]2[S+]1[O-] (some centres undefined); 4.17
